// data source = paper PMC12752606

# targetDesc: EZH2 [A738T] (Homo sapiens, UniProt Q15910, A733T)
# Sequence (Q15910 1-751 isoform Q15910-2 A738T): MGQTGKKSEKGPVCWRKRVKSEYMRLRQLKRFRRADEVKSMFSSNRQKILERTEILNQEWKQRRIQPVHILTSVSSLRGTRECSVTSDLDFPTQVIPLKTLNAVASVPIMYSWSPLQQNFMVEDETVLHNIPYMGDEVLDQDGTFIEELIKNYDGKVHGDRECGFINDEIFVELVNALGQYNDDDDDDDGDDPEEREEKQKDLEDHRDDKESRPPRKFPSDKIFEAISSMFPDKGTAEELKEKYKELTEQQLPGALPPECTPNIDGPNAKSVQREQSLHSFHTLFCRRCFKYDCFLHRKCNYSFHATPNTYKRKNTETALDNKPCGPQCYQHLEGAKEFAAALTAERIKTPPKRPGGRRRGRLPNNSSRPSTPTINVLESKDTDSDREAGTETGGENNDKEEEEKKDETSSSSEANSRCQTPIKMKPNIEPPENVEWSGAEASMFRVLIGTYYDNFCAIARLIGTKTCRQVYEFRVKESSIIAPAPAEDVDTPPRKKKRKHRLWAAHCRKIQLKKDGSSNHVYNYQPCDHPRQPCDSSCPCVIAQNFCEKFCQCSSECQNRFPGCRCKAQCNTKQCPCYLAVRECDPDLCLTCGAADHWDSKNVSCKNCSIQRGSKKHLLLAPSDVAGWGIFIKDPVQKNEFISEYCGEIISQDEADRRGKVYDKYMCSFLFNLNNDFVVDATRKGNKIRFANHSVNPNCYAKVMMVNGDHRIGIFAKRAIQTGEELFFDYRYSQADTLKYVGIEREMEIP
# Sequence (O75530 whole entry partner): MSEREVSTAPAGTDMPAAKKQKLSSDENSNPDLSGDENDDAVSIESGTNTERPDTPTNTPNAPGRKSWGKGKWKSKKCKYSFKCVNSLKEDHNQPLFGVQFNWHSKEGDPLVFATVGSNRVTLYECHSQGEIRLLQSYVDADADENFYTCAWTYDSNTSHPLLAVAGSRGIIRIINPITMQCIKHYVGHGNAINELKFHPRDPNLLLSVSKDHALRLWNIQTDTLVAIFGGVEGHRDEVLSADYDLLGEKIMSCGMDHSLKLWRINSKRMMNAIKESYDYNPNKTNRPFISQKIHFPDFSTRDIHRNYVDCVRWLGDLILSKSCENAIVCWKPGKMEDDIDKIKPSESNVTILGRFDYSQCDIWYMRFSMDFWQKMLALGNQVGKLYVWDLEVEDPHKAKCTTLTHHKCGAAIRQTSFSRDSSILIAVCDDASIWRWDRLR
# Sequence (Q15022 whole entry partner): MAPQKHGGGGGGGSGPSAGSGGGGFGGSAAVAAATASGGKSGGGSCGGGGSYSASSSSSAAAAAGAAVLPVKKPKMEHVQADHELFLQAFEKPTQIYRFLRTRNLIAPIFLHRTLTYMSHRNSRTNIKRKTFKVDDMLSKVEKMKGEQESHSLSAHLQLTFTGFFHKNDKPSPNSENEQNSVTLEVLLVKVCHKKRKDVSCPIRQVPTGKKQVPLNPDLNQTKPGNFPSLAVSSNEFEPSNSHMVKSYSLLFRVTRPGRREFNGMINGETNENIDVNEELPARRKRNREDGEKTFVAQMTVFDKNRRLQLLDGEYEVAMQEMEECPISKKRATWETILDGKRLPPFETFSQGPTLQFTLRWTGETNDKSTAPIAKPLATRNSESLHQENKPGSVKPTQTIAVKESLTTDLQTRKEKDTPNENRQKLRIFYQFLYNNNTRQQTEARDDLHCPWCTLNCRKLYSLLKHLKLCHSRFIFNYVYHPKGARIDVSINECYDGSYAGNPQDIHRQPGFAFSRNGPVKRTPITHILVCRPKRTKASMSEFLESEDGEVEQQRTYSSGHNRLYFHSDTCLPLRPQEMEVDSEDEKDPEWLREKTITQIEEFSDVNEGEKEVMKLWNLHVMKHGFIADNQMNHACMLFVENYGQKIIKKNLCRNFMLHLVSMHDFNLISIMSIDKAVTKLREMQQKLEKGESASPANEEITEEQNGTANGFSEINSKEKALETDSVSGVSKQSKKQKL
# Sequence (Q09028 whole entry partner): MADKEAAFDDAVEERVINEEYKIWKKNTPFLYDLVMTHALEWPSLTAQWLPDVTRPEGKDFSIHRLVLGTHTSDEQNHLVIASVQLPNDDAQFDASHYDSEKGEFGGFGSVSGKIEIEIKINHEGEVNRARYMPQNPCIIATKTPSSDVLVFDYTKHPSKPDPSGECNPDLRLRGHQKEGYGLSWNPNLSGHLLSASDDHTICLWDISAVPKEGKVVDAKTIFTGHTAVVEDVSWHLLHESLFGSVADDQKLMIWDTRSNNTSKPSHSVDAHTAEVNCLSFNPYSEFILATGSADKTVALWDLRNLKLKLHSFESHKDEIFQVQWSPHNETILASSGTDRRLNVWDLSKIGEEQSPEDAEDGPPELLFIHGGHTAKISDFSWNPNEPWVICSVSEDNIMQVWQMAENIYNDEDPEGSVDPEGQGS
# assayProcedure: Off-target methyltransferase profiling (MTase-Glo)
measurementName: IC50

# input What value of IC50 has been reported for the following compound? `Cc1ccc(Nc2ncc3c(n2)N(C)C(=O)N(c2cccc(N)c2)C3)cn1`
# output 7.47 µM

----------
# targetDesc: MLL3 (Homo sapiens)
measurementName: IC50 (µM)
Report only the number, with the unit µM understood.

# input Kindly state the measured IC50 obtained for `Cc1ccc(Nc2ncc3c(n2)N(C)C(=O)N(c2cccc(N)c2)C3)cn1` with MLL3 (Homo sapiens).
# output 9.47

----------
# assayProcedure: Plasma pharmacokinetics after IV and PO administration
# Type: in vivo, male Sprague–Dawley rats
# measurementConditions: male, Sprague-Dawley, rat, plasma, iv, 1 mg/kg, IV 1 mg/kg; read-out: Cl_obs, mean
measurementName: clearance
Answer shape: numeric part, then the unit.

# input What value of clearance has been reported for the following compound? `Cc1ccc(Nc2ncc3c(n2)N(C)C(=O)N(c2cccc(N)c2)C3)cn1`
# output 94.2 mL/min/kg

----------
# targetDesc: PRMT5 (Homo sapiens, UniProt O14744)
# Sequence (O14744 whole entry, species assumed): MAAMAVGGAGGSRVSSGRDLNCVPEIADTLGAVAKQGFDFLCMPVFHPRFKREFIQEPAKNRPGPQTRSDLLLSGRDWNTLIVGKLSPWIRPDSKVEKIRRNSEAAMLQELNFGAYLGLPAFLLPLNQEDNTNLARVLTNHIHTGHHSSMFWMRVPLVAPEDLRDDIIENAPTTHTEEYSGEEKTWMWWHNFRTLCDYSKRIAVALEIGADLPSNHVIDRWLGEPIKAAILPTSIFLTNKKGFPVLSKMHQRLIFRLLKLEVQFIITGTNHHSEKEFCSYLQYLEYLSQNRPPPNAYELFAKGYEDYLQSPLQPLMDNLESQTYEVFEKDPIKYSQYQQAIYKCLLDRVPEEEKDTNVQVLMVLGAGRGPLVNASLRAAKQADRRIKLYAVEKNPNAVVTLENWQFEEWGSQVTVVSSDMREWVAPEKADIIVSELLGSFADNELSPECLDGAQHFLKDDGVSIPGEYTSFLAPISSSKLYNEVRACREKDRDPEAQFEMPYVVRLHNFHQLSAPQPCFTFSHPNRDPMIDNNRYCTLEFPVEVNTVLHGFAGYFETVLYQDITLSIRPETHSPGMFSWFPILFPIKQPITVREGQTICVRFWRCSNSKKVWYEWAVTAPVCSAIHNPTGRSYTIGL
# Sequence (Q9BQA1 whole entry partner, species assumed): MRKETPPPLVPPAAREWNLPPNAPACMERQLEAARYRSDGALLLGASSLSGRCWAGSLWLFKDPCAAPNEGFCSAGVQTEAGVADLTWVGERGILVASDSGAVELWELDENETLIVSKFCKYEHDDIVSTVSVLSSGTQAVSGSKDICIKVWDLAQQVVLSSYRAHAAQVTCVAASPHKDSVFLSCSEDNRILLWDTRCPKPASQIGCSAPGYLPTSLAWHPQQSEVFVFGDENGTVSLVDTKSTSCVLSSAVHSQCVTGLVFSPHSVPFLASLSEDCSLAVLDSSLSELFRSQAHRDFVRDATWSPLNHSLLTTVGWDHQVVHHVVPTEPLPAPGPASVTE
measurementName: pIC50
Scale: negative log10 of molar concentration, which is what pIC50 denotes.

# input Kindly state the measured pIC50 obtained for `Cc1ccc(Nc2ncc3c(n2)N(C)C(=O)N(c2cccc(N)c2)C3)cn1` with PRMT5 (Homo sapiens, UniProt O14744).
# output 4.88

----------
# targetDesc: GFP-tagged METTL10 protein (Homo sapiens, UniProt Q5JPI9)
# assayProcedure: Microscale thermophoresis (MST)
# measurementConditions: lysate of HEK293T cells expressing GFP-METTL10, read-out: Dissociation constant (KD)
measurementName: Kd (µM)
Report only the number, with the unit µM understood.

# input What value of Kd has been reported for the following compound? `Cc1ccc(Nc2ncc3c(n2)N(C)C(=O)N(c2cccc(N)c2)C3)cn1`
# output 4.47

----------
# assayProcedure: Plasma pharmacokinetics after IV and PO administration
# Format: in vivo, male Sprague–Dawley rats
# measurementConditions: male, Sprague-Dawley, rat, plasma, po, 10 mg/kg, PO 10 mg/kg, 4 h; read-out: Plasma concentration, mean
measurementName: concentration at 4 h (ng/mL)
Report only the number, with the unit ng/mL understood.

# input What value of concentration at 4 h has been reported for the following molecule? `Cc1ccc(Nc2ncc3c(n2)N(C)C(=O)N(c2cccc(N)c2)C3)cn1`
# output 1.79

----------
# assayProcedure: Plasma pharmacokinetics after IV and PO administration
# Format: in vivo, male Sprague–Dawley rats
# measurementConditions: male, Sprague-Dawley, rat, plasma, iv, 1 mg/kg, IV 1 mg/kg, individual rats R01-R03; read-out: T1/2 (converted)
measurementName: half-life (min)
Report only the number, with the unit min understood.

# input What value of half-life has been reported for the following molecule? `Cc1ccc(Nc2ncc3c(n2)N(C)C(=O)N(c2cccc(N)c2)C3)cn1`
# output 43.3

----------
# targetDesc: PRMT1 (Homo sapiens, UniProt Q99873)
# Sequence (Q99873 whole entry, species assumed): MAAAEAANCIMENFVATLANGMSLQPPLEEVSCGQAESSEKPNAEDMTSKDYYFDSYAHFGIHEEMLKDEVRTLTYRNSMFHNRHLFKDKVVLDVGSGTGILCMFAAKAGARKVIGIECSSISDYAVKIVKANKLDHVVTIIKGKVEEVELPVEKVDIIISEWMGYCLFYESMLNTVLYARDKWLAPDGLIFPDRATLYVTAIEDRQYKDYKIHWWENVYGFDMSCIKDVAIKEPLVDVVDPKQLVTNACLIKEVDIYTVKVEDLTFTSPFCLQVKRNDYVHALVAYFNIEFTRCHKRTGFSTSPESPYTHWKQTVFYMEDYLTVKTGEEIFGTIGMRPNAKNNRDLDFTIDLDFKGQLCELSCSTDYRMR
measurementName: pIC50
Scale: negative log10 of molar concentration, which is what pIC50 denotes.

# input Kindly state the measured pIC50 obtained for `Cc1ccc(Nc2ncc3c(n2)N(C)C(=O)N(c2cccc(N)c2)C3)cn1` with PRMT1 (Homo sapiens, UniProt Q99873).
# output 4.71

----------
# assayProcedure: Plasma pharmacokinetics after IV and PO administration
# Format: in vivo, male Sprague–Dawley rats
# measurementConditions: male, Sprague-Dawley, rat, plasma, po, 10 mg/kg, PO 10 mg/kg; read-out: MRTInf_obs, mean
measurementName: MRT inf (h)
Report only the number, with the unit h understood.

# input What value of MRT inf has been reported for the following molecule? Cc1ccc(Nc2ncc3c(n2)N(C)C(=O)N(c2cccc(N)c2)C3)cn1 [LZQ-02-023-01]
# output 1.9

----------
# assayProcedure: Plasma pharmacokinetics after IV and PO administration
# Format: in vivo, male Sprague–Dawley rats
# measurementConditions: male, Sprague-Dawley, rat, plasma, po, 10 mg/kg, PO 10 mg/kg, 0.5 h; read-out: Plasma concentration, mean
measurementName: concentration at 0.5 h

# input What value of concentration at 0.5 h has been reported for the following compound? `Cc1ccc(Nc2ncc3c(n2)N(C)C(=O)N(c2cccc(N)c2)C3)cn1`
# output 18.1 ng/mL

----------
# assayProcedure: Plasma pharmacokinetics after IV and PO administration
# Type: in vivo, male Sprague–Dawley rats
# measurementConditions: male, Sprague-Dawley, rat, plasma, iv, 1 mg/kg, IV 1 mg/kg, 5 min, individual rats R01-R03; read-out: Plasma concentration
measurementName: concentration at 5 min (ng/mL)
Report only the number, with the unit ng/mL understood.

# input What value of concentration at 5 min has been reported for the following compound? `Cc1ccc(Nc2ncc3c(n2)N(C)C(=O)N(c2cccc(N)c2)C3)cn1`
# output 504

----------
# assayProcedure: Acute toxicity, single intraperitoneal injection at escalating doses (LD50)
# measurementConditions: ICR, mouse, in vivo, ip, ICR mice, 24 h survival
measurementName: LD50 at 24 h

# input What value of LD50 at 24 h has been reported for the following compound? `Cc1ccc(Nc2ncc3c(n2)N(C)C(=O)N(c2cccc(N)c2)C3)cn1`
# output 213 mg/kg

----------
# assayProcedure: Plasma pharmacokinetics after IV and PO administration
# Type: in vivo, male Sprague–Dawley rats
# measurementConditions: male, Sprague-Dawley, rat, plasma, po, 10 mg/kg, PO 10 mg/kg; read-out: AUClast, mean
measurementName: AUC(0-t)
Answer shape: numeric part, then the unit.

# input What value of AUC(0-t) has been reported for the following compound? Cc1ccc(Nc2ncc3c(n2)N(C)C(=O)N(c2cccc(N)c2)C3)cn1 [LZQ-02-023-01]
# output 28.6 ng·h/mL

----------
# targetDesc: EZH2 (Homo sapiens, UniProt Q15910)
# Sequence (Q15910 whole entry, species assumed): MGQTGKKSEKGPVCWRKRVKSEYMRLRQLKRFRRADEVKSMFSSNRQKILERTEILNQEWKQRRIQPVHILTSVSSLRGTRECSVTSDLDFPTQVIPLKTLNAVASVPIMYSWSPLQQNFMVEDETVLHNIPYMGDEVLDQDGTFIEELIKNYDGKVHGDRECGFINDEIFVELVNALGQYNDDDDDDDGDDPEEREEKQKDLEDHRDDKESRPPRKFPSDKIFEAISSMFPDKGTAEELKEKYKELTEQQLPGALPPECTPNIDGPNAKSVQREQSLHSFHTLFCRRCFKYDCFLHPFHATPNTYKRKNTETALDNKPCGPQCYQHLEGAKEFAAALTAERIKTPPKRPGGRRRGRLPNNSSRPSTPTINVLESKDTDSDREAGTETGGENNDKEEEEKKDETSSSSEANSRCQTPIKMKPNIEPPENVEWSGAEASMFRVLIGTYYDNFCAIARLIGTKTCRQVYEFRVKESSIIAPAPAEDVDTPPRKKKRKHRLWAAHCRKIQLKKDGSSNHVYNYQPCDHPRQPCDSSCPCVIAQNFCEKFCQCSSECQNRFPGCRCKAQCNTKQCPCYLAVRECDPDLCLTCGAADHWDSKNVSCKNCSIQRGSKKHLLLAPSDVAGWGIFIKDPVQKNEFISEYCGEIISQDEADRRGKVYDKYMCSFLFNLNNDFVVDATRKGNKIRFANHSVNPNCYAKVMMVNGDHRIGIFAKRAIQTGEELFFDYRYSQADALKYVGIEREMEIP
# Sequence (O75530 whole entry partner, species assumed): as the sequence (O75530 whole entry partner) above
# Sequence (Q15022 whole entry partner, species assumed): as the sequence (Q15022 whole entry partner) above
# Sequence (Q09028 whole entry partner, species assumed): as the sequence (Q09028 whole entry partner) above
measurementName: IC50 (µM)
Report only the number, with the unit µM understood.

# input Kindly state the measured IC50 obtained for `Cc1ccc(Nc2ncc3c(n2)N(C)C(=O)N(c2cccc(N)c2)C3)cn1` with EZH2 (Homo sapiens, UniProt Q15910).
# output 14.7

----------
# assayProcedure: Plasma pharmacokinetics after IV and PO administration
# Format: in vivo, male Sprague–Dawley rats
# measurementConditions: male, Sprague-Dawley, rat, plasma, iv, 1 mg/kg, IV 1 mg/kg, 0.5 h, individual rats R01-R03; read-out: Plasma concentration
measurementName: concentration at 0.5 h (ng/mL)
Report only the number, with the unit ng/mL understood.

# input What value of concentration at 0.5 h has been reported for the following molecule? Cc1ccc(Nc2ncc3c(n2)N(C)C(=O)N(c2cccc(N)c2)C3)cn1 [LZQ-02-023-01]
# output 10.9

----------
# assayProcedure: Plasma pharmacokinetics after IV and PO administration
# Type: in vivo, male Sprague–Dawley rats
# measurementConditions: male, Sprague-Dawley, rat, plasma, po, 10 mg/kg, PO 10 mg/kg, individual rats R04-R06; read-out: MRTInf_obs
# Experimental: LZQ‐02‐023‐1 was administered to male Sprague–Dawley (SD) rats (n = 3 per group) via intravenous injection at a dose of 1 mg/kg or oral gavage at a dose of 10 mg/kg. Blood samples were collected at predetermined time points, and plasma concentrations of LZQ‐02‐023‐1 were determined using a validated LC‐MS/MS method. […] A 10 µL aliquot of the diluted supernatant was injected into an AB Sciex Triple Quad 5500 LC‐MS/MS system for quantitative analysis. […]
measurementName: MRT inf (h)
Report only the number, with the unit h understood.

# input What value of MRT inf has been reported for the following compound? Cc1ccc(Nc2ncc3c(n2)N(C)C(=O)N(c2cccc(N)c2)C3)cn1 [LZQ-02-023-01]
# output 1.85

----------
# targetDesc: DNMT1 (Homo sapiens, UniProt P26358)
measurementName: IC50

# input Kindly state the measured IC50 obtained for `Cc1ccc(Nc2ncc3c(n2)N(C)C(=O)N(c2cccc(N)c2)C3)cn1` with DNMT1 (Homo sapiens, UniProt P26358).
# output 23.8 µM
